experiment: FRG1 promoter luciferase signal modulators, primary screen, FRG1 inhibition for FSHD, cell-based, C2C12 myotubes, firefly/Renilla luciferase, luminescence (AID 1084); settings: higher = more signal, called active from +8 up or from −8 down
measured_attribute: z-score
Returns: the value as a bare number; no unit string appended.

Query string: For the compound shown here, CC(C)(C)OC(=O)CC[C@@]1(C(=O)O)N=C(c2ccc(OCCCO)cc2)O[C@@H]1c1ccccc1CN=[N+]=[N-] , give the reported z-score.
Result string: 5.39

Query string: Would you mind doing CN1C2C=C(CCCO)C(C3C(=O)N(C(N)=O)C(=O)C32)C1c1cccs1 (stereo not given) as well?
Result string: -0.194

Query string: Queued: Cc1ccc(S[C@]2(C(=O)NC(C)C)CC(=O)N(Cc3ccccc3C(F)(F)F)[C@@H]2c2ccc(CO)cc2I)cc1
Result string: -0.62

Query string: Further, for CC(C)NC(=O)[C@@]1(C)c2ccccc2C(=O)N(C(C)C)[C@H]1c1ccc(CO)cc1 ?
Result string: -0.639

Query string: // repeat for C[C@@H](OCc1ccccc1)C1NC(=O)[C@@]23C(=O)N[C@@H](Cc4ccccc4)C2[C@H](C)[C@@]2(C)O[C@H]2C3/C=C/C/C=C\CNC(=O)CNC1=O (stereo not given in full) and report
Result string: -0.0275

Query string: Ok, now O=C1O[C@@H](c2ccccc2)[C@@H](c2ccccc2)N2[C@@H](c3ccc(O)cc3)[C@]3(C(=O)Nc4ccc(C#CC5=CCCCC5)cc43)[C@@H](C(=O)N3CCN(c4ncccn4)CC3)[C@H]12
Result string: 0.795

Query string: Okay, and C=CCNC(=O)[C@@H]1[C@H]2C(=O)O[C@H](c3ccccc3)[C@H](c3ccccc3)N2[C@H](c2ccccc2OCCO)[C@@]12C(=O)N(C(=O)OCCOC)c1ccc(C#CC3=CCCCC3)cc12 ?
Result string: -1.11

Query string: # iterate: CCOC(=O)C1=CC[C@@H](c2ccccc2C(F)(F)F)N(S(=O)(=O)c2ccc(C)cc2)C1
Result string: -3.59

Query string: What do you get for Cc1c(NC(=O)/C(C#N)=C/C=C/c2ccc(N(C)C)cc2)c(=O)n(-c2ccccc2)n1C ?
Result string: 3.7

Query string: Next: CCCCN1CC=CC23O[C@@H]4C=CCOC(=O)[C@@H]4[C@H]2C(=O)N(C(C)CO)[C@@H]3C1=O (stereo not given in full)
Result string: 1.66

Query string: Cc1ccc(S[C@]2(C(=O)NCC(C)C)CC(=O)N(Cc3ccccc3Cl)[C@@H]2c2ccc(CO)cc2I)cc1 ?
Result string: -1.45

Query string: Param item: COc1cc(OC)c(C(O)C2C=CC3C(=O)N(c4ccccc4)C(=O)C3N2Nc2ccc(C#N)cc2)cc1Br (stereo not given)
Result string: -0.647

Query string: Same lookup for C[C@]1(C(=O)NC2CC2)c2ccccc2C(=O)N(Cc2ccc(OC(F)(F)F)cc2)[C@H]1c1ccc(CO)cc1 , please.
Result string: -1.68

Query string: Then C=C(C(=O)CC[C@H](OC(=O)c1cccnc1)c1cccc(OCCO)c1)C(C)C ?
Result string: 0.243

Query string: Param item: CC(=O)NCCCC[C@@H]1NC(=O)[C@@H]2C[C@H](C(=O)O)[C@H](c3ccc(O)cc3)N2C1=O
Result string: 0.785

Query string: Now the compound C[C@@H]1ON(c2ccc(C(=O)OC(C)(C)C)cc2)[C@H](c2ccc(Br)cc2)[C@H]1C(=O)N1C(=O)OC[C@H]1Cc1ccccc1
Result string: 0.002

Query string: Please answer likewise for COc1cc2c(cc1OC)CN(C(=O)[C@H]1[C@@H]3C(=O)O[C@@H](c4ccccc4)[C@@H](c4ccccc4)N3[C@@H](c3ccc(OCCO)cc3)[C@]13C(=O)Nc1ccc(C#CCCO)cc13)CC2
Result string: -0.0164

Query string: Try the compound COCCOC(=O)N1C(=O)[C@@]2(c3cc(C#Cc4ccc(OC)cc4)ccc31)[C@H](C(=O)N1CCN(c3ncccn3)CC1)[C@H]1C(=O)O[C@H](c3ccccc3)[C@H](c3ccccc3)N1[C@@H]2c1ccccc1OCCO
Result string: -0.425

Query string: Also need NC(=O)N1C(=O)C2C(C1=O)C1C=C(c3ccc(CO)cc3)C2C(C2CC2)N1Cc1sc2ccccc2c1Cl (stereo not given) , thanks.
Result string: -1.27

Query string: Then what about the compound COc1cc(CO)cc(I)c1O[C@H]1C=C(C(=O)NCCO)C[C@@H](NCc2ccccc2F)[C@@H]1O ?
Result string: -1.05

Query string: Note, next up: COCCOC(=O)N1C(=O)[C@@]2(c3cc(C#CC4=CCCCC4)ccc31)[C@H](c1ccccc1OCCO)N1[C@H](c3ccccc3)[C@H](c3ccccc3)OC(=O)[C@H]1[C@@H]2C(=O)N1CCc2cc(OC)c(OC)cc2C1
Result string: -0.202

Query string: Another compound to look at: CCN(CC)c1ccc(N2CC=CC34O[C@@H]5/C=C\CCC(C)OC(=O)C5[C@H]3C(=O)N(CCO)[C@@H]4C2=O)cc1 (stereo not given in full)
Result string: 1.16

Query string: How about this compound: CC(C)N1C(=O)[C@@]2(c3ccc([N+](=O)[O-])cc3)CC(=O)N(C3CCCCC3)[C@@H]2c2ccc(CO)cc21
Result string: 1.25

Query string: Record: COc1cc2c(cc1OC)CN(C(=O)[C@H]1[C@@H]3C(=O)O[C@@H](c4ccccc4)[C@@H](c4ccccc4)N3[C@@H](c3ccc(OCCO)cc3)[C@]13C(=O)Nc1ccc(C#CC4(O)CCCCCC4)cc13)CC2
Result string: -0.126

Query string: Here is the next compound: O=C1NC(=O)C2C1C=CC(C(O)c1c(F)cccc1Cl)N2Nc1ccccn1 (stereo not given)
Result string: 0.569

====

target: Calmodulin-1 (Homo sapiens) (UniProt P0DP23); test: CALM1 binders on microarrays, EGTA buffer, profiling panel, biochemical, small-molecule microarray, Cy5-labelled CALM1 (AID 1111); conditions: Cy5-CALM1 binding fluorescence, higher = more signal;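 also: labelled calmodulin applied in Tris saline Tween buffer holding calcium plus EGTA and DTT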
Criterion: composite z-score meeting or surpassing 0.1. Met: criterion met. Not met: criterion not met.

Query string: Hi, just wondering whether O=C(O)[C@H](Cc1ccccc1)n1cc(-c2ccccn2)nn1 shows composite z-score of 0.1 or higher.
Result string: criterion met

Query string: Next record, please: CCCCN1CC=CC23O[C@@H]4/C=C\CCC(C)OC(=O)C4[C@H]2C(=O)N(CCCCCCO)[C@@H]3C1=O (stereo not given in full)
Result string: criterion met

Query string: Next compound: COc1cc2c(cc1OC)CN(C(=O)[C@H]1[C@@H]3C(=O)O[C@@H](c4ccccc4)[C@@H](c4ccccc4)N3[C@@H](c3ccc(OCCO)cc3)[C@]13C(=O)Nc1ccc(C#CC4(O)CCCCCC4)cc13)CC2
Result string: criterion met

Query string: Input Cc1ccc(S[C@]2(C(=O)NCCN3CCOCC3)CC(=O)N(Cc3ccccc3C(F)(F)F)[C@@H]2c2ccc(CO)cc2I)cc1
Result string: criterion not met

Query string: Entry O=c1cccc(-c2cccc(Cl)c2)o1 please
Result string: criterion not met

====

assay: splicing luciferase reporter signal modulators, primary screen, spliceosome inhibition project, cell-based, HEK293, splice +/- reporter (AID 1101); conditions: luminescence, 24 h, called active from +8 up or from −8 down;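 also: HEK293 cells carrying a splicing-competent luciferase reporter gene; test concentration not given here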
The source made the active and inactive calls.
// classify into label 1 = active, label 0 = inactive

Query string: Just curious, what result did COC(=O)C1(Cc2ccccc2)C=C2C(=C(c3ccccc3)C(=O)C2C)CN1 (centres undefined) get here?
Result string: label 0

Query string: // repeat for COc1ccc(C(O)C2C=CC3C(=O)N(c4ccccc4)C(=O)C3N2Nc2ccc(C#N)cc2)c2ccccc12 (centres undefined) and report
Result string: label 0

Query string: Try the compound C=CC1c2cc(O)c(OC)cc2CCN1Cc1sc2ccccc2c1Cl (centres undefined)
Result string: label 0

Query string: Now consider CCOC(=O)[C@H]1C/C=C/C[C@H](C(=O)OCC)C(=O)O[C@H]2[C@@H](OC)O[C@H](CO)[C@@H](OC(=O)Nc3ccc(OC)cc3)[C@@H]2OC1=O and answer again.
Result string: label 0

Query string: // query: O=C1OCC=C[C@H]2OC34C=CCN(c5ccc(Cl)cc5)C(=O)[C@H]3N(CCCCCO)C(=O)[C@@H]4[C@@H]12 (some centres undefined)
Result string: label 0

Query string: What about O=C1C[C@@](C(=O)NCC(F)(F)F)(c2ccc([N+](=O)[O-])cc2)[C@@H](c2ccc(CO)cc2)N1C1CCCCC1 ?
Result string: label 0

Query string: Another compound: NCCCCCNC(=O)[C@@H]1C[C@@H]2C(=O)N[C@@H](CCCCN)C(=O)N2[C@@H]1c1cccc(OCCO)c1
Result string: label 0

Query string: Also need COc1ccc(NN2C(C(O)c3ccccn3)C=CC3C(=O)N(C4CCCCC4)C(=O)C32)cc1 (centres undefined) , thanks.
Result string: label 0

Query string: # iterate: C[C@H]1C2=C3C(CC[C@H]4C(OCc5ccc(F)cc5C(F)(F)F)OC[C@](C)([C@@H]34)N(C(=O)OC(C)(C)C)C2)C2COC(=O)OCC21 (some centres undefined)
Result string: label 0

Query string: For CCOC(=O)C1=CC[C@@H](c2ccccc2)N(S(=O)(=O)c2ccc(C)cc2)C1 then?
Result string: label 0

Query string: Also O=C1NC(=O)C2C1C=CC(C(O)c1ccc3c(c1)OCO3)N2Nc1ccccn1 (centres undefined) ?
Result string: label 0

Query string: Quick one: COc1ccc([Si](C)(C)[C@@H]2[C@@H](CCn3cc([C@H](O)c4ccccc4)nn3)O[C@]3(C(=O)N(Cc4ccc(N5CCOC5=O)cc4)c4ccccc43)[C@H]2C)cc1
Result string: label 0

Query string: Same question for COCCOC(=O)N1C(=O)[C@@]2(c3ccccc31)[C@H](C(=O)N1CCN(c3ncccn3)CC1)[C@H]1C(=O)O[C@H](c3ccccc3)[C@H](c3ccccc3)N1[C@@H]2c1ccc(OCCO)cc1 please.
Result string: label 0

Query string: // next record C#CCNC(=O)[C@H](Cc1ccccc1)NC(=O)[C@@H](N=[N+]=[N-])C(C)C
Result string: label 0

Query string: And CN(C)CCCCNC(=O)[C@H]1C[C@H]2C(=O)N3CCC[C@H]3C(=O)N2[C@H]1c1ccc(O)cc1 ?
Result string: label 0

Query string: Subsequent entry: CC(C)CNC(=O)[C@@H]1c2ccccc2C(=O)N(Cc2cc(F)cc(C(F)(F)F)c2)[C@H]1c1ccc(CO)cc1
Result string: label 0

Query string: Same question, COC(=O)[C@@]1(Cc2ccc(OC)cc2)[C@H]2c3cc(C(=O)N4CCCC4)n(CCc4cc5ccccc5[nH]4)c3C[C@H]2CN1C(=O)c1ccccc1 this time
Result string: label 0

Query string: Proceed to C=CC[C@@]1(C(=O)N2CCCCC2)N=C(c2ccc(OCCCO)cc2)O[C@@H]1c1ccccc1
Result string: label 0

Query string: Subsequent entry: C=C[C@@H](COC(C)=O)NS(=O)(=O)c1ccc(Br)cc1
Result string: label 1

Query string: Can you check CN(C)CCCNC(=O)[C@@H]1c2ccccc2C(=O)N(CC23CC4CC(CC(C4)C2)C3)[C@H]1c1ccc(CO)cc1 next?
Result string: label 0

Query string: Could you do the same for CCCCC(=C=CC[C@@H](O)c1ccc(OCCO)cc1)C[C@@H](O)COCc1ccccc1 , please?
Result string: label 0

Query string: Next entry: O=C1c2ccccc2[C@](Cc2ccccc2I)(C(=O)NCCN2CCOCC2)[C@H](c2ccc(CO)cc2)N1Cc1ccccc1
Result string: label 0

Query string: Try this compound next: O=C(O)[C@H]1C[C@H]2C(=O)N3CCC[C@H]3C(=O)N2[C@H]1c1cccc(OCCO)c1
Result string: label 0

Query string: For CC1CC/C=C\[C@H]2OC34C=CCN(C(C)C)C(=O)[C@H]3N(CCCCCO)C(=O)[C@@H]4C2C(=O)O1 (some centres undefined) then?
Result string: label 0

Query string: Param item: [N-]=[N+]=Nc1ccccc1[C@@H]1OC(c2ccc(OCCCO)cc2)=N[C@]1(CCS(=O)(=O)c1ccccc1)C(=O)NCCN1CCOCC1
Result string: label 0

Query string: Cool, now O=C1O[C@@H](c2ccccc2)[C@@H](c2ccccc2)N2[C@@H](c3ccc(O)cc3)[C@]3(C(=O)Nc4ccc(C#CCCO)cc43)[C@@H](C(=O)NC[C@H](O)c3ccccc3)[C@H]12
Result string: label 0

Query string: And then C=C(COC)/C(=C/C[C@@H](OC(=O)c1ccncc1)c1ccc(CO)o1)c1cnc2ccccc2c1 , what is it?
Result string: label 0

Query string: How about CC1CC/C=C\[C@H]2OC34C=CCN(CCN5CCOCC5)C(=O)[C@H]3N(CCO)C(=O)[C@@H]4C2C(=O)O1 (some centres undefined) ?
Result string: label 0

Query string: Next entry: C=CCOC(=O)[C@H]1[C@@H]2C(=O)O[C@@H](c3ccccc3)[C@@H](c3ccccc3)N2[C@@H](c2ccc(OCCOC(=O)[C@H]3C[C@H]4C(=O)N[C@@H](CCCC[N+](C)(C)C)C(=O)N4[C@H]3c3cccc(OCCO)c3)cc2)[C@]12C(=O)Nc1ccc(I)cc12
Result string: label 0
